Assay: Thermodynamic solubility study (HPLC of mother liquors)
Assay type: physicochemical
Conditions: organic solvent or mixture, thermodynamic from solid; acetone:water 90:10 v/v; 50° C.
Where a name gives a salt, the structure may show the parent alone.
READOUT LABEL: solubility thermodynamic at 23 h

Output solubility thermodynamic at 23 h of CC[C@H]1CN2CCc3cc(OC)c(OC)cc3[C@@H]2C[C@@H]1C[C@H]1NCCc2cc(OC)c(OC)cc21 [Amorphous Compound I dihydrochloride]
40 to 115 mg/mL

====

Experiment: Solubility screening by solvent addition technique (approximate solubility)
Type: physicochemical
Conditions: organic solvent or mixture, thermodynamic from solid, toluene, stirred at 50° C.
Where a name gives a salt, the structure may show the parent alone.
READOUT LABEL: solubility

Output solubility of CC[C@H]1CN2CCc3cc(OC)c(OC)cc3[C@@H]2C[C@@H]1C[C@H]1NCCc2cc(OC)c(OC)cc21 [Amorphous Compound I dihydrochloride]
< 10 mg/mL

====

Assay: Thermodynamic solubility study (HPLC of mother liquors)
Format: physicochemical
Conditions: organic solvent or mixture, thermodynamic from solid; 2-propanol:heptane 90:10 v/v; 50° C.
Structures can show the parent of a compound that is named as a salt.
READOUT LABEL: solubility thermodynamic at 23 h

Output solubility thermodynamic at 23 h of CC[C@H]1CN2CCc3cc(OC)c(OC)cc3[C@@H]2C[C@@H]1C[C@H]1NCCc2cc(OC)c(OC)cc21 [Amorphous Compound I dihydrochloride]
40 to 115 mg/mL

====

Assay: Solubility screening by solvent addition technique (approximate solubility)
Format: physicochemical
Settings: organic solvent or mixture, thermodynamic from solid, dimethylformamide, stirred at 50° C.
Where a name gives a salt, the structure may show the parent alone.
READOUT LABEL: solubility

Output solubility of CC[C@H]1CN2CCc3cc(OC)c(OC)cc3[C@@H]2C[C@@H]1C[C@H]1NCCc2cc(OC)c(OC)cc21 [Amorphous Compound I dihydrochloride]
> 200 mg/mL

====

Test: Thermodynamic solubility study (HPLC of mother liquors)
Type: physicochemical
Details: organic solvent or mixture, thermodynamic from solid; acetone:water 60:40 v/v; 50° C.; experiment remained unsaturated
Structures can show the parent of a compound that is named as a salt.
READOUT LABEL: solubility thermodynamic at 23 h

Output solubility thermodynamic at 23 h of CC[C@H]1CN2CCc3cc(OC)c(OC)cc3[C@@H]2C[C@@H]1C[C@H]1NCCc2cc(OC)c(OC)cc21 [Amorphous Compound I dihydrochloride]
> 215 mg/mL

====

Experiment: Thermodynamic solubility study (HPLC of mother liquors)
Format: physicochemical
Settings: thermodynamic from solid; water; 50° C.; experiment remained unsaturated
Where a name gives a salt, the structure may show the parent alone.
READOUT LABEL: solubility thermodynamic at 23 h

Output solubility thermodynamic at 23 h of CC[C@H]1CN2CCc3cc(OC)c(OC)cc3[C@@H]2C[C@@H]1C[C@H]1NCCc2cc(OC)c(OC)cc21 [Amorphous Compound I dihydrochloride]
> 215 mg/mL

====

Assay: Solubility screening by solvent addition technique (approximate solubility)
Format: physicochemical
Details: thermodynamic from solid; water; at ambient temperature; small, fine particles remained (Experiment 25)
Where a name gives a salt, the structure may show the parent alone.
READOUT LABEL: solubility

Output solubility of CC[C@H]1CN2CCc3cc(OC)c(OC)cc3[C@@H]2C[C@@H]1C[C@H]1NCCc2cc(OC)c(OC)cc21 [Compound I dihydrochloride Form 1]
> 200 mg/mL

====

Test: Solubility screening by solvent addition technique (approximate solubility)
Format: physicochemical
Settings: organic solvent or mixture, thermodynamic from solid, 1-propanol, stirred at 50° C.
Text: Approximate solubility values for amorphous Compound I dihydrochloride in 24 solvent systems was estimated by a solvent addition technique (Table 5). […]
Structures can show the parent of a compound that is named as a salt.
READOUT LABEL: solubility

Output solubility of CC[C@H]1CN2CCc3cc(OC)c(OC)cc3[C@@H]2C[C@@H]1C[C@H]1NCCc2cc(OC)c(OC)cc21 [Amorphous Compound I dihydrochloride]
> 200 mg/mL

====

Assay: Thermodynamic solubility study (HPLC of mother liquors)
Assay type: physicochemical
Conditions: organic solvent or mixture, thermodynamic from solid; 2-propanol:water 95:5 v/v; 5° C.
Where a name gives a salt, the structure may show the parent alone.
READOUT LABEL: solubility thermodynamic at 23 h

Output solubility thermodynamic at 23 h of CC[C@H]1CN2CCc3cc(OC)c(OC)cc3[C@@H]2C[C@@H]1C[C@H]1NCCc2cc(OC)c(OC)cc21 [Amorphous Compound I dihydrochloride]
10 to 40 mg/mL

====

Test: Solubility screening by solvent addition technique (approximate solubility)
Assay type: physicochemical
Details: aqueous with cosolvent or surfactant or cyclodextrin, thermodynamic from solid, ethanol:water 25:75 v/v, stirred at 50° C.
Structures can show the parent of a compound that is named as a salt.
READOUT LABEL: solubility

Output solubility of CC[C@H]1CN2CCc3cc(OC)c(OC)cc3[C@@H]2C[C@@H]1C[C@H]1NCCc2cc(OC)c(OC)cc21 [Amorphous Compound I dihydrochloride]
> 200 mg/mL

====

Experiment: Solubility screening by solvent addition technique (approximate solubility)
Assay type: physicochemical
Conditions: organic solvent or mixture, thermodynamic from solid, 2-propanol, stirred at 50° C.
Structures can show the parent of a compound that is named as a salt.
READOUT LABEL: solubility

Output solubility of CC[C@H]1CN2CCc3cc(OC)c(OC)cc3[C@@H]2C[C@@H]1C[C@H]1NCCc2cc(OC)c(OC)cc21 [Amorphous Compound I dihydrochloride]
> 200 mg/mL

====

Test: Solubility screening by solvent addition technique (approximate solubility)
Type: physicochemical
Conditions: organic solvent or mixture, thermodynamic from solid, 2-propanol:water 95:5 v/v, stirred at 50° C.
Structures can show the parent of a compound that is named as a salt.
READOUT LABEL: solubility

Output solubility of CC[C@H]1CN2CCc3cc(OC)c(OC)cc3[C@@H]2C[C@@H]1C[C@H]1NCCc2cc(OC)c(OC)cc21 [Amorphous Compound I dihydrochloride]
> 200 mg/mL

====

Assay: Thermodynamic solubility study (HPLC of mother liquors)
Assay type: physicochemical
Settings: organic solvent or mixture, thermodynamic from solid; ethanol:heptane 60:40 v/v; 5° C.
Where a name gives a salt, the structure may show the parent alone.
READOUT LABEL: solubility thermodynamic at 23 h

Output solubility thermodynamic at 23 h of CC[C@H]1CN2CCc3cc(OC)c(OC)cc3[C@@H]2C[C@@H]1C[C@H]1NCCc2cc(OC)c(OC)cc21 [Amorphous Compound I dihydrochloride]
< 10000 µg/mL

====

Experiment: Solubility screening by solvent addition technique (approximate solubility)
Format: physicochemical
Conditions: organic solvent or mixture, thermodynamic from solid, heptane, stirred at 50° C.
Counter-ions that a name gives are not always drawn.
READOUT LABEL: solubility

Output solubility of CC[C@H]1CN2CCc3cc(OC)c(OC)cc3[C@@H]2C[C@@H]1C[C@H]1NCCc2cc(OC)c(OC)cc21 [Amorphous Compound I dihydrochloride]
< 10000 µg/mL

====

Assay: Thermodynamic solubility study (HPLC of mother liquors)
Assay type: physicochemical
Conditions: organic solvent or mixture, thermodynamic from solid; 2-propanol:heptane 70:30 v/v; 5° C.
Counter-ions that a name gives are not always drawn.
READOUT LABEL: solubility thermodynamic at 23 h

Output solubility thermodynamic at 23 h of CC[C@H]1CN2CCc3cc(OC)c(OC)cc3[C@@H]2C[C@@H]1C[C@H]1NCCc2cc(OC)c(OC)cc21 [Amorphous Compound I dihydrochloride]
< 10000 µg/mL
